Biological target: T1, Rhesus macaque CD4-HIS (Acro Biosystems, Cat. CD4-C52H7) (rhesus macaque, UniProt P16003 26-390)
T1 construct: Bought reagent; also called Rhesus CD4; rhesus CD4-HIS; not shown: His tag
T1 sequence (P16003 26-390 limits assumed): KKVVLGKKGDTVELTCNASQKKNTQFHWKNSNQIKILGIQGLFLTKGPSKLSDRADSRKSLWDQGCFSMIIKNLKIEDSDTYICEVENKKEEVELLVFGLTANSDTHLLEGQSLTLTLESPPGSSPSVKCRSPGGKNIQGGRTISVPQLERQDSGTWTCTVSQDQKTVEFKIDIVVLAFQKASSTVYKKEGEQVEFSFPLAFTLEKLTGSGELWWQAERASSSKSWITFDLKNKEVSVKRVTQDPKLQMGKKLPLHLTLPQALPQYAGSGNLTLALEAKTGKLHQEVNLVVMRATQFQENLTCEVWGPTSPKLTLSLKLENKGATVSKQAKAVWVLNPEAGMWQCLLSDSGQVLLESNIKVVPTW
Test: BLI (Octet Red384); Ab on anti-mouse Fc (AMC) sensor; rhesus CD4-HIS 100/50/25 nM; global 1:1 fit;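 also: antibodies loaded at 10 µg/mL, an unrelated mouse-derived antibody served as internal reference, curves fit over association and dissociation phases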
attribute measured: Response

1. 75110_08D24A (antibody, V domains shown, Tested as antibody purified from AlivaMab Mouse hybridoma supernatant (human variable domains, kappa; mouse Fc, captured on anti-mouse IgG Fc sensors); also called ADS75110 purified AMM Ab) VH: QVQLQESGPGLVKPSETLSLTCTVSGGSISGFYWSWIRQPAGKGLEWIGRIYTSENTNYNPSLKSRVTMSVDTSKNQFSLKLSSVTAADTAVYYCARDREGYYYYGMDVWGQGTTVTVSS VL: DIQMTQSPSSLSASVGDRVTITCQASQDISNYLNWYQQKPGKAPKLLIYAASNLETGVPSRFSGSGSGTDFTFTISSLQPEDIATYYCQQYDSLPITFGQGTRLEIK
0.05
2. 75110_13P21A (antibody, V domains shown, Tested as antibody purified from AlivaMab Mouse hybridoma supernatant (human variable domains, kappa; mouse Fc, captured on anti-mouse IgG Fc sensors); also called ADS75110 purified AMM Ab) VH: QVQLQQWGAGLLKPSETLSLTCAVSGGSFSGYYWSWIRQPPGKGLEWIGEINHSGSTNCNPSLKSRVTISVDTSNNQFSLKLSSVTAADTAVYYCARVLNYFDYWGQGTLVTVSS VL: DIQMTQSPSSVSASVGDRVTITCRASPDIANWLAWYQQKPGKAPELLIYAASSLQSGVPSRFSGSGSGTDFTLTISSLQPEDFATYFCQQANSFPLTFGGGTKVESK
0.11
